assayed_system: Muscarinic acetylcholine receptor M1 (Homo sapiens) (UniProt P11229)
Sequence (P11229 whole entry): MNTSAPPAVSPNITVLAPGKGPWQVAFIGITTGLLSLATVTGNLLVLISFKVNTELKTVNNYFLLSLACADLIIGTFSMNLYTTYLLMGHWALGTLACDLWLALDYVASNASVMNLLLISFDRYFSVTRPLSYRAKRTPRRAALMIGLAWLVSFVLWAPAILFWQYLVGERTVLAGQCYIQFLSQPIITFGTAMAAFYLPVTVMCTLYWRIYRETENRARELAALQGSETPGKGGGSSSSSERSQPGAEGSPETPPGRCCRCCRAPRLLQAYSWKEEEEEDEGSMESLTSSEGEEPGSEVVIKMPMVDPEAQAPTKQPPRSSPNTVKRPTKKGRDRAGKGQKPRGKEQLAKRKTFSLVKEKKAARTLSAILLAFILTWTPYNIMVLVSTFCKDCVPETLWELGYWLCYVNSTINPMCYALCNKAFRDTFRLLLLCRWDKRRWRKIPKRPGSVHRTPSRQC
measurement_conditions: Compound concentration 10 µM
Description: PDSP Primary Binding target: CHRM1 - Compounds are tested at 10 uM concentration, plate are incubated at room temperature in the dark for 90 minutes. Reaction are stopped by vacuum filtration onto 0.3% polyethyleneimine soaked filter mats using Filtermate harvester. Scintilation cocktail is then melted onto microwave-dried filters on a hot plate and the radio activity is counted in Microbia counter.
Provide the reported inhibition of each item.

A selection of reference data follows.
Ask | Which value of inhibition has been reported for CO[C@@H]1COCC[C@@H]1N[C@@H]1CC[C@@](C(=O)N2CCc3ncc(C(F)(F)F)cc3C2)(C(C)C)C1 in the records?
Reply | -6.06%

Ask | Need inhibition, item CC(C)Oc1ccccc1C(=O)Nc1ccccc1C(=O)Nc1cccc(S(=O)(=O)C(F)(F)F)c1
Reply | -6.91%

Ask | // lookup inhibition for O=C(O)Cn1c(C(=O)Nc2nc(-c3ccccc3Cl)cs2)cc2ccccc21
Reply | 6.86%

Please give inhibition, item by item, for the list that follows.
1. O=C(O)CC1CCC2(CC1)CCN(c1cc(OC(F)(F)F)ccc1Cl)CC2
2. O=c1ccc2ccc(OCCCCN3CCN(c4cccc5sccc45)CC3)cc2[nH]1

Reply |
-1.08%
30.3%
